Record form. Attribute: %Inh. Fill in for each entry.
tested on: AKT1; conditions: concentration: 1 μM, replicates: in singlicate; n = 1;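 also: KINOMEscan kinase panel screen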
# output: bare number, implied unit %

Notebook: "COC(=O)c1c(-c2ccccc2)c2cc(Cl)ccc2c(=O)n1Cc1ccc(S(C)(=O)=O)cc1" , %Inh read as 9

Notebook: "Oc1ccc2ncnc(Nc3ccc(OCc4ccccc4)cc3)c2c1" , %Inh read as 0

Notebook: "CNc1nccc(-c2c(-c3ccc(F)cc3)ncn2C2CCN(C)CC2)n1" , %Inh read as 0

Notebook: COc1ccc(Nc2nccc(N3CCC(NC(=O)c4cccc(NC(C)=O)c4)C3)n2)cc1 (centres unmarked) , %Inh read as 0

Notebook: "CSc1ccc(NC2=C(c3ccccc3Cl)C(=O)NC2=O)cc1" , %Inh read as 0
